Origin of measurements: patent US9630977B2

Entries and their MIC90 values follow.
- Tested on: K. pneumoniae β9
- assay_protocol: In vitro antibacterial activity test (broth microdilution)
- Assay type: cell-based
- condition_details: Klebsiella pneumoniae

The cases that follow already have their MIC90 on record.
{"compound": "CC(C)(O/N=C(\\C(=O)N[C@@H]1C(=O)N2C(C(=O)[O-])=C(/C=C/C[n+]3cnc(N)c(NC(=O)CN)c3N)CSC12)c1csc(N)n1)C(=O)O (stereo partly shown)", "MIC90": "1 µg/mL"}
{"compound": "CC(C)(O/N=C(\\C(=O)N[C@@H]1C(=O)N2C(C(=O)[O-])=C(/C=C/C[n+]3cnc(N)c(NC(=O)CCN)c3)CSC12)c1nc(N)sc1Cl)C(=O)O (stereo partly shown)", "MIC90": "1 µg/mL"}
{"compound": "CC(C)(O/N=C(\\C(=O)N[C@@H]1C(=O)N2C(C(=O)[O-])=C(/C=C/C[n+]3cnc(N)c(NCCCN)c3)CSC12)c1nsc(N)n1)C(=O)O (stereo partly shown)", "MIC90": "1 µg/mL"}

The value of MIC90 recorded for CC(C)(O/N=C(\C(=O)N[C@@H]1C(=O)N2C(C(=O)[O-])=C(C[n+]3cnc(NCCN)c(NCCNC(=O)c4cc(=O)c(O)cn4O)c3)CSC12)c1csc(N)n1)C(=O)O (stereo partly shown) when tested on K. pneumoniae β9 reads < 0.0625 µg/mL
